- Protocol Description: Tissue distribution of ATR-101 in rats
- Assay type: in vivo
- Condition Set: rat, ovary (relative to plasma); female rats; 100 mg/kg/day for 7 days; N=3; read-out: ovary concentration relative to plasma
Structures can show the parent of a compound that is named as a salt.
Assay Metric: Kp at 7 days

Memo: CC(C)c1cccc(C(C)C)c1NC(=O)NCC1(c2ccc(N(C)C)cc2)CCCC1 [ATR-101, hydrochloride] , reported Kp at 7 days: ~1.4

Hey, just so you know, these numbers are from patent US9877937B2.
